EXPERIMENT NOTES: Solubility of dexamethasone in water / aqueous medium
Type: physicochemical
MEASUREMENT SETUP: aqueous medium such as the tear fluid
ASSAY ENDPOINT: solubility

Problem: I'd like to know its solubility. The molecule in question is C[C@@H]1C[C@H]2[C@@H]3CCC4=CC(=O)C=C[C@]4(C)[C@@]3(F)[C@@H](O)C[C@]2(C)[C@@]1(O)C(=O)CO
Solution: < 100 µg/mL
